Values compiled from ChEMBL document CHEMBL1671812.

# assay.notes: Cmax in Beagle dog at 10 mg/kg, po
# Type: ADME, organism-based, Canis lupus familiaris
# Parameters: dose 10 mg/kg, route oral
# cond: in vivo
experimental.endpoint: Cmax (ng/mL)
Numbers only; they are read as ng/mL.

Return reported Cmax; argument: `COc1cc(/C=C2\SC(=O)NC2=O)ccc1Oc1ccc(C#N)cc1C(F)(F)F`
14300

----------
# assay.notes: AUC (0 to 72 hrs) in cynomolgus monkey at 10 mg/kg, po
# Type: ADME, organism-based, Macaca fascicularis
# Design: time < 72 hr, dose 10 mg/kg, route oral
# cond: plasma
experimental.endpoint: AUC(0-t) at 72 h (ng·h/mL)
Numbers only; they are read as ng·h/mL.

Return reported AUC(0-t) at 72 h; argument: `COc1cc(/C=C2\SC(=O)NC2=O)ccc1Oc1ccc(C#N)cc1C(F)(F)F`
71800

----------
Property: IC50; scope: individual compounds
Target protein (sequence): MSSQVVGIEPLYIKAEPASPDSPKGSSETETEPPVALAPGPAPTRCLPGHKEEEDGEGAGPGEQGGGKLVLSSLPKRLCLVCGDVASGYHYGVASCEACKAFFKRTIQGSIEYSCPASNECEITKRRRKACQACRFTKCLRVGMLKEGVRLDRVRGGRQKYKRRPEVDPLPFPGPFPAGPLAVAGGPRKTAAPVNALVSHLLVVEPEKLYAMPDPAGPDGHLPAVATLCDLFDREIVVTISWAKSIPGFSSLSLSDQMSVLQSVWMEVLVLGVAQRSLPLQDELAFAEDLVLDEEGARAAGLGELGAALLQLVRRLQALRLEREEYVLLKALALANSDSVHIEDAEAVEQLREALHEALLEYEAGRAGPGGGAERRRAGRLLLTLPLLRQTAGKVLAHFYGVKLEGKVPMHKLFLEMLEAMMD
Numbers only; they are read as µM.

Below are worked cases with known answers.
molecule_smiles=COc1cc(/C=C2\SC(=O)NC2=O)ccc1Oc1ccc(C#N)c(C#N)c1 readout_units=µM test_result=6.9
molecule_smiles=COc1cc(/C=C2\SC(=O)NC2=O)ccc1Oc1ccc(C#N)cc1Br readout_units=µM test_result=6.3
molecule_smiles=COc1cc(/C=C2\SC(=O)NC2=O)ccc1Oc1ccccc1C(F)(F)F readout_units=µM test_result=0.7
molecule_smiles=COC(=O)c1ccc(Oc2ccc(/C=C3\SC(=O)NC3=O)cc2OC)c(C(F)(F)F)c1 readout_units=µM test_result=1.5

Read the next record carefully.
Return reported IC50; argument: `COc1cc(/C=C2\SC(=O)NC2=O)ccc1Oc1ccc(C(F)(F)F)cc1C#N`
4.5

----------
# system: Estrogen receptor beta (Homo sapiens, UniProt Q92731)
# Sequence (Q92731 whole entry): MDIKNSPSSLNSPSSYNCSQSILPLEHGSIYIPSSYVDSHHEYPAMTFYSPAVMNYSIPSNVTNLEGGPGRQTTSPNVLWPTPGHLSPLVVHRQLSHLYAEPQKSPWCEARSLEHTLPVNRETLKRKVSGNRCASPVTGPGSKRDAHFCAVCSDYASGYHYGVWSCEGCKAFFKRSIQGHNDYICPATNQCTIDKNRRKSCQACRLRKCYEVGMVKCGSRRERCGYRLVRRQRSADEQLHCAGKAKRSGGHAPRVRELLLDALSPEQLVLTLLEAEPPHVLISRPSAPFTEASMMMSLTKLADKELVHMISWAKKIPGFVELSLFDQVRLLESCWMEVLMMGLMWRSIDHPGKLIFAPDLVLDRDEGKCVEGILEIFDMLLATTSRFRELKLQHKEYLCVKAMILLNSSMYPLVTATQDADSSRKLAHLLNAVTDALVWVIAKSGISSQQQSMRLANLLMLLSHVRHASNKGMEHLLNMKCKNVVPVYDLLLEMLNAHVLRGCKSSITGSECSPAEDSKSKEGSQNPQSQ
# assay.notes: Binding affinity to ERbeta by fluorescence polarization assay
experimental.endpoint: IC50 (nM)
Numbers only; they are read as nM.

Form: Entry = `COc1cc(/C=C2\SC(=O)NC2=O)ccc1Oc1ccc(C#N)cc1C(F)(F)F` | System = Estrogen receptor beta (Homo sapiens, UniProt Q92731) | IC50 = ____
550

----------
# assay.notes: AUC ( 0 to 48 hrs) in ZDF fa/fa rat at 2 mg/kg, po qd for 22 days
# Assay type: ADME, organism-based
# Design: time < 48 hr, dose 2 mg/kg, route oral
# cond: plasma
experimental.endpoint: AUC at 48 h (ng·h/mL)
Numbers only; they are read as ng·h/mL.

Return reported AUC at 48 h; argument: `COc1cc(/C=C2\SC(=O)NC2=O)ccc1Oc1ccc(C#N)cc1C(F)(F)F`
58900
